Reported pIC50 is given for each of the following compounds.
assay.target: human Lck enzyme (Homo sapiens, UniProt P06239)
Construct: purchased Carna Biosciences, Inc. 08-170
Sequence (P06239 whole entry): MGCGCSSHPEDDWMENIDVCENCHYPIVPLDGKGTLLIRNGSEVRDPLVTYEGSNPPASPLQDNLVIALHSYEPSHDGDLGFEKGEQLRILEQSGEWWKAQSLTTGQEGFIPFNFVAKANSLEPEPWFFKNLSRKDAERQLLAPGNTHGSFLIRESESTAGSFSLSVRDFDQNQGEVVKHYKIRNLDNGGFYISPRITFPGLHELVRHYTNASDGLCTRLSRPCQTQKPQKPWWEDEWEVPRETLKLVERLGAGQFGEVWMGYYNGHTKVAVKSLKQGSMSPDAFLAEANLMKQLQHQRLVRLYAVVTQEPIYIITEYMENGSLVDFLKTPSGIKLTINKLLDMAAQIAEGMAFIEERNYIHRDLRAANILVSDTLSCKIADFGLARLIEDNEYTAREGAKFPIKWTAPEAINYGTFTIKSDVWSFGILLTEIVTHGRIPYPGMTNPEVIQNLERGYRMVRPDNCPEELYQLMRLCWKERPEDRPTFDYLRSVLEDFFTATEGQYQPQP
test.summary: Lck enzyme inhibitory activity (time-resolved fluorometry, biotinylated peptide phosphorylation)
Format: biochemical
details: read-out: LCK_IC50
pIC50: −log10 of the molar value.
quantity.measured: pIC50

[[record]]
structure = "Cc1cc(Oc2ccccc2F)ncc1-n1ncc(C(=O)c2cc3cc(C4CC4)c(NS(=O)(=O)C4CCOCC4)cc3[nH]2)c1N"
quantity_measured = "pIC50"
recorded_measurement = 7.17

[[record]]
structure = "Cc1cc(Oc2c(F)cccc2F)ncc1-n1ncc(C(=O)c2cc3cc(OCC(F)F)c(-c4cncnc4)cc3[nH]2)c1N"
quantity_measured = "pIC50"
recorded_measurement = 7.92

[[record]]
structure = "Cc1cc(Oc2ccccc2F)ccc1-n1ncc(C(=O)c2cc3cc(F)c(NC4CCN(S(C)(=O)=O)CC4)cc3[nH]2)c1N"
quantity_measured = "pIC50"
recorded_measurement = 8.28

[[record]]
structure = "Cc1cc(-n2ncc(C(=O)c3cc4cc(OC5CCN(C6CCC6)CC5)c(F)cc4[nH]3)c2N)ccc1Oc1ccccc1F"
quantity_measured = "pIC50"
recorded_measurement = 7.14

